- system_under_test: Alpha-1D adrenergic receptor (Homo sapiens)
- Sequence (P25100 whole entry): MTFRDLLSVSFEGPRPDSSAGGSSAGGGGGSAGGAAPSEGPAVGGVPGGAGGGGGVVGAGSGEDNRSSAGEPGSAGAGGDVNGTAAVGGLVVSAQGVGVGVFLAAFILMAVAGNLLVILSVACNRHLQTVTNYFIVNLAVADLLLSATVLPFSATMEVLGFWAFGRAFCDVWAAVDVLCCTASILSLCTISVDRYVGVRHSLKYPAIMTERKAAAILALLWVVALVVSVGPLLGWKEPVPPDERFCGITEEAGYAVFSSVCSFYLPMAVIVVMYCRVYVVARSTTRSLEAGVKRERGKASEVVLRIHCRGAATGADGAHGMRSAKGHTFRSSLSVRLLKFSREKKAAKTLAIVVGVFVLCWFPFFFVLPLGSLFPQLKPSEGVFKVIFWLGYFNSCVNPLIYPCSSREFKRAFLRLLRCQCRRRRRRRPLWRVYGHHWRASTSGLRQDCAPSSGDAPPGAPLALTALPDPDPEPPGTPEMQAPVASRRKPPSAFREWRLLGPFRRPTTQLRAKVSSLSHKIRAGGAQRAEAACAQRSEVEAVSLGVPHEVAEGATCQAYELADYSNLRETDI
- assay_comment: In vitro binding affinity against Alpha-1D adrenergic receptor of cloned human receptor.
endpoint_label: Ki

Before answering, review these 3 worked examples.
compound: CCC1=C(C(=O)NC)C(c2ccc([N+](=O)[O-])cc2)N(C(=O)NCCCN2CCC(C(=O)OC)(c3ccccc3)CC2)C(=O)N1 (stereo not given)
result: 398 nM
//
compound: COC(=O)C1=C(C)NC(=O)N(C(=O)NCCCN2CCC(C(=O)OC)(c3ccccc3)CC2)C1c1ccc(F)cc1F (stereo not given)
result: 180 nM
//
compound: COC(=O)C1(c2ccccc2)CCN(CCCNC(=O)N2C(=O)NC(C)=C(C(=O)O)C2c2ccc([N+](=O)[O-])cc2)CC1 (stereo not given)
result: 2600 nM

I would be grateful if you could provide Ki for each of the following entries.
1. COC(=O)C1=C(C)NC(=O)N(C(=O)NCCCN2CCC(C(=O)OC)(c3ccccc3)CC2)C1c1cccc(Cl)c1 (stereo not given)
2. COC(=O)C1=C(C)NC(=O)N(C(=O)NCCCN2CCC(C(=O)OC)(c3ccccc3)CC2)C1c1cccc(F)c1 (stereo not given)
3. COC(=O)C1=C(C)NC(=O)N(C(=O)NCCCN2CCC(C(=O)OC)(c3ccccc3)CC2)C1c1ccc(F)cc1 (stereo not given)
4. CCC1=C(C(=O)OC)C(c2ccc([N+](=O)[O-])cc2)N(C(=O)NCCCN2CCC(C(=O)OC)(c3ccccc3)CC2)C(=O)N1 (stereo not given)

180 nM
150 nM
180 nM
87 nM

Go through the list and state Ki for each entry.
1. COC(=O)C1=C(C)NC(=O)N(C(=O)NCCCN2CCC(C(=O)OC)(c3ccccc3)CC2)C1c1ccc2nonc2c1 (stereo not given)
2. COC(=O)C1(c2ccccc2)CCN(CCCNC(=O)N2C(=O)NC(C)=C(C(N)=O)C2c2ccc([N+](=O)[O-])cc2)CC1 (stereo not given)
3. CCOC(=O)C1=C(C)NC(=O)N(C(=O)NCCCN2CCC(C(=O)OC)(c3ccccc3)CC2)C1c1ccc([N+](=O)[O-])cc1 (stereo not given)

1. 93 nM
2. 140 nM
3. 91 nM
